Experiment: Metabolic stability in mouse liver microsomes assessed as intrinsic clearance measured up to 60 mins in presence of NADPH by LC-MS/MS analysis
Format: ADME, Microsome
Details: read-out: CLH
measurement label: CLint scaled (mL/min/kg)
Enter your answer as a number in mL/min/kg; do not include the unit.

Exam item: Need CLint scaled, item Cl.O=S(=O)(c1ccccc1)n1ncc2cc(-n3cc(CN[C@@H]4C[C@H]4c4ccc(F)c(F)c4)nn3)ccc21
Marked response: 261

----------
Experiment: Metabolic stability in rat liver microsomes assessed as intrinsic clearance measured up to 60 mins in presence of NADPH by LC-MS/MS analysis
Type: ADME, Microsome
Settings: read-out: CLH
measurement label: CLint scaled

Exam item: Need CLint scaled, item Cl.O=S(=O)(c1ccccc1)n1ncc2cc(-n3cc(CN[C@@H]4C[C@H]4c4ccc(F)c(F)c4)nn3)ccc21
Marked response: 352 mL/min/kg
